Catalogue of Biodistribution values
test system: Rattus norvegicus; experiment: Evaluated for biodistribution in rat brain after 1 min of administration; format: ADME, organism-based; settings: in vivo
API: value field is a number in %; no unit string.

CHEMICAL_STRUCTURE: Ic1ccc(CN2CCCCC2)cc1CN1CCCCC1
Biodistribution [%]: 1.47

CHEMICAL_STRUCTURE: CN(C)Cc1ccccc1I
Biodistribution [%]: 0.07

# get_value(readout='Biodistribution', item= CN(C)Cc1ccc(I)c(CN(C)C)c1 )
2.36

# get_value(readout='Biodistribution', item= CC(C)NCc1ccc(I)c(CNC(C)C)c1 )
0.64

----------
Catalogue of Biodistribution values
tested on: Rattus norvegicus; assay: Evaluated for biodistribution in rat brain after 2 min of administration; format: ADME, organism-based; details: in vivo
API: value field is a number in %; no unit string.

# get_value(readout='Biodistribution', item= CC(C)NCc1ccc(I)c(CNC(C)C)c1 )
0.62

# get_value(readout='Biodistribution', item= CN(C)Cc1ccc(I)c(CN(C)C)c1 )
2.4

# get_value(readout='Biodistribution', item= CN(C)Cc1ccccc1I )
2.42

# get_value(readout='Biodistribution', item= Ic1ccc(CN2CCCCC2)cc1CN1CCCCC1 )
1.7

----------
system: Rattus norvegicus; test: Evaluated for biodistribution in rat brain after 6 min of administration; type: ADME, organism-based; conditions: in vivo, 0.1 h
Catalogue of Biodistribution values

CHEMICAL_STRUCTURE: CC(C)NCc1ccc(I)c(CNC(C)C)c1
SYSTEM_NAME: Rattus norvegicus
RESULT: 0.59%
//
CHEMICAL_STRUCTURE: Ic1ccc(CN2CCCCC2)cc1CN1CCCCC1
SYSTEM_NAME: Rattus norvegicus
RESULT: 0.7%
//
CHEMICAL_STRUCTURE: CN(C)Cc1ccccc1I
SYSTEM_NAME: Rattus norvegicus
RESULT: 0.022%

The record that follows has no Biodistribution shown yet.
# get_value(readout='Biodistribution', item= CN(C)Cc1ccc(I)c(CN(C)C)c1 )
1.51%

----------
test system: Rattus norvegicus; assay: Evaluated for biodistribution in rat heart after 6 min of administration; type: ADME, organism-based; conditions: in vivo, 0.1 h
Catalogue of Biodistribution values
API: value field is a number in %; no unit string.

CHEMICAL_STRUCTURE: CN(C)Cc1ccccc1I
UNIT: %
Biodistribution: 0.014

# get_value(readout='Biodistribution', item= CN(C)Cc1ccc(I)c(CN(C)C)c1 )
0.19

# get_value(readout='Biodistribution', item= Ic1ccc(CN2CCCCC2)cc1CN1CCCCC1 )
0.18

# get_value(readout='Biodistribution', item= CC(C)NCc1ccc(I)c(CNC(C)C)c1 )
0.83

----------
Catalogue of Biodistribution values
tested on: Rattus norvegicus; assay: Evaluated for biodistribution in rat heart after 1 min of administration; type: ADME, organism-based; details: in vivo
API: value field is a number in %; no unit string.

// worked examples, Biodistribution included
CHEMICAL_STRUCTURE: CN(C)Cc1ccc(I)c(CN(C)C)c1
Biodistribution [%]: 0.44
--
CHEMICAL_STRUCTURE: CN(C)Cc1ccccc1I
Biodistribution [%]: 0.06
--
CHEMICAL_STRUCTURE: Ic1ccc(CN2CCCCC2)cc1CN1CCCCC1
Biodistribution [%]: 0.51

The record that follows has no Biodistribution shown yet.
# get_value(readout='Biodistribution', item= CC(C)NCc1ccc(I)c(CNC(C)C)c1 )
1.99

----------
system: Rattus norvegicus; assay: Evaluated for biodistribution in rat thyroid after 1 min of administration; type: ADME, organism-based, Thyroid gland; details: in vivo
OBSERVED_PROPERTY: Biodistribution (%)
API: value field is a number in %; no unit string.

// worked examples, Biodistribution included
CHEMICAL_STRUCTURE: CN(C)Cc1ccccc1I
OBSERVED_PROPERTY: Biodistribution
NUMBER: 0.01

CHEMICAL_STRUCTURE: CC(C)NCc1ccc(I)c(CNC(C)C)c1
OBSERVED_PROPERTY: Biodistribution
NUMBER: 0.27

CHEMICAL_STRUCTURE: Ic1ccc(CN2CCCCC2)cc1CN1CCCCC1
OBSERVED_PROPERTY: Biodistribution
NUMBER: 0.15

# get_value(readout='Biodistribution', item= CN(C)Cc1ccc(I)c(CN(C)C)c1 )
0.11

----------
system: Rattus norvegicus; assay: Evaluated for biodistribution in rat heart after 2 min of administration; assay type: ADME, organism-based; conditions: in vivo
OBSERVED_PROPERTY: Biodistribution

// worked examples, Biodistribution included
CHEMICAL_STRUCTURE: Ic1ccc(CN2CCCCC2)cc1CN1CCCCC1
SYSTEM_NAME: Rattus norvegicus
Biodistribution: 3.19%
--
CHEMICAL_STRUCTURE: CN(C)Cc1ccc(I)c(CN(C)C)c1
SYSTEM_NAME: Rattus norvegicus
Biodistribution: 2.76%
--
CHEMICAL_STRUCTURE: CN(C)Cc1ccccc1I
SYSTEM_NAME: Rattus norvegicus
Biodistribution: 0.59%

# get_value(readout='Biodistribution', item= CC(C)NCc1ccc(I)c(CNC(C)C)c1 )
2.18%

----------
Catalogue of Biodistribution values
test system: Rattus norvegicus; experiment: Evaluated for biodistribution in rat kidney after 2 min of administration; type: ADME, organism-based; conditions: in vivo
API: value field is a number in %; no unit string.

CHEMICAL_STRUCTURE: CC(C)NCc1ccc(I)c(CNC(C)C)c1
SYSTEM_NAME: Rattus norvegicus
NUMBER: 6.93

Param readout= Biodistribution; system= Rattus norvegicus; entry= Ic1ccc(CN2CCCCC2)cc1CN1CCCCC1 ; returns value.
7.33

Param readout= Biodistribution; system= Rattus norvegicus; entry= CN(C)Cc1ccc(I)c(CN(C)C)c1 ; returns value.
7.69

Param readout= Biodistribution; system= Rattus norvegicus; entry= CN(C)Cc1ccccc1I ; returns value.
10.12

----------
Catalogue of Biodistribution values
tested on: Rattus norvegicus; experiment: Evaluated for biodistribution in rat lung after 6 min of administration; assay type: ADME, organism-based; settings: in vivo, 0.1 h
API: value field is a number in %; no unit string.

CHEMICAL_STRUCTURE: CN(C)Cc1ccc(I)c(CN(C)C)c1
UNIT: %
Biodistribution: 1.96

# get_value(readout='Biodistribution', item= CN(C)Cc1ccccc1I )
0.04

# get_value(readout='Biodistribution', item= Ic1ccc(CN2CCCCC2)cc1CN1CCCCC1 )
1.75

# get_value(readout='Biodistribution', item= CC(C)NCc1ccc(I)c(CNC(C)C)c1 )
8.71

----------
tested on: Rattus norvegicus; assay: Evaluated for biodistribution in rat blood after 2 min of administration; type: ADME, organism-based; conditions: in vivo
Catalogue of Biodistribution values
API: value field is a number in %; no unit string.

CHEMICAL_STRUCTURE: CN(C)Cc1ccc(I)c(CN(C)C)c1
NUMBER: 3.52
//
CHEMICAL_STRUCTURE: CC(C)NCc1ccc(I)c(CNC(C)C)c1
NUMBER: 6.42
//
CHEMICAL_STRUCTURE: Ic1ccc(CN2CCCCC2)cc1CN1CCCCC1
NUMBER: 4.11

The record that follows has no Biodistribution shown yet.
# get_value(readout='Biodistribution', item= CN(C)Cc1ccccc1I )
7.01

----------
Catalogue of Biodistribution values
system: Rattus norvegicus; assay: Evaluated for biodistribution in rat lung after 1 min of administration; format: ADME, organism-based; conditions: in vivo
API: value field is a number in %; no unit string.

CHEMICAL_STRUCTURE: CN(C)Cc1ccc(I)c(CN(C)C)c1
OBSERVED_PROPERTY: Biodistribution
NUMBER: 4.36

CHEMICAL_STRUCTURE: CN(C)Cc1ccccc1I
OBSERVED_PROPERTY: Biodistribution
NUMBER: 0.19

CHEMICAL_STRUCTURE: CC(C)NCc1ccc(I)c(CNC(C)C)c1
OBSERVED_PROPERTY: Biodistribution
NUMBER: 13.02

# get_value(readout='Biodistribution', item= Ic1ccc(CN2CCCCC2)cc1CN1CCCCC1 )
6.65

----------
test system: Rattus norvegicus; assay: Evaluated for biodistribution in rat kidney after 6 min of administration; type: ADME, organism-based; conditions: in vivo, 0.1 h
OBSERVED_PROPERTY: Biodistribution (%)
API: value field is a number in %; no unit string.

// worked examples, Biodistribution included
CHEMICAL_STRUCTURE: Ic1ccc(CN2CCCCC2)cc1CN1CCCCC1
OBSERVED_PROPERTY: Biodistribution
NUMBER: 1.97

CHEMICAL_STRUCTURE: CC(C)NCc1ccc(I)c(CNC(C)C)c1
OBSERVED_PROPERTY: Biodistribution
NUMBER: 3.4

# get_value(readout='Biodistribution', item= CN(C)Cc1ccc(I)c(CN(C)C)c1 )
2.98

# get_value(readout='Biodistribution', item= CN(C)Cc1ccccc1I )
0.34
